Values were extracted from ChEMBL document CHEMBL1154674.

Test name: Biodistribution in NMRI mouse cerebrum at 3.7 MBq/mL, iv after 60 mins by gamma counting
Format: ADME, organism-based
Conditions: in vivo, 1 h

# Molecule, Drug uptake
measured = [
    ("Nc1ccc2nc(-c3ccc([18F])cc3)sc2c1", "0.32%"),
    ("CNc1ccc2nc(-c3ccc([18F])cc3)sc2c1", "0.44%"),
    ("CN(C)c1ccc2nc(-c3ccc([18F])cc3)sc2c1", "0.65%"),
    ("Cc1ccc2nc(-c3ccc([18F])cc3)sc2c1", "0.07%"),
    ("[11CH3]Nc1ccc(-c2nc3ccc(O)cc3s2)cc1", "0.18%"),
]
